System: CCRIS mutagenicity, Ames/micronucleus/aberration tests
method summary: CCRIS mutagenicity studies
run parameters: Test System: AMES SALMONELLA TYPHIMURIUM; Strain/Indicator: TA1537; Metabolic Activation: NONE; Method: STANDARD PLATE
Active and inactive are the calls of the source. How the calls were made is not given here.
Outcomes: active, inactive

compound	label class
O=S(=O)(Nc1ccc(Cl)cc1)c1cccc2cccnc12	inactive
O=S(=O)(O)c1cccc2cccnc12	inactive
O=C(O)c1ccccc1Nc1cc(Cl)ccc1C(=O)O	inactive
O=C(O)c1ccc(N=Nc2ccc(O)c(C(=O)O)c2)cc1	inactive
OC[C@H]1OC(O[C@H]2[C@H](O)[C@@H](O)C(O[C@H]3[C@H](O)[C@@H](O)[C@@H](O)O[C@@H]3CO)O[C@@H]2CO)[C@H](O)[C@@H](O)[C@@H]1O (some centres undefined)	inactive
C[C@H]1CCCC(=O)CCC/C=C/c2cc(O)cc(O)c2C(=O)O1	inactive
Cc1ccc(OS(=O)(=O)c2cccc3cccnc23)c([N+](=O)[O-])c1	active
CN(CCO)C(=O)Nc1ccccc1	inactive
CC(C)NNC(=O)c1ccncc1	inactive
O=C(CCCN1CCC(O)(c2ccc(Cl)cc2)CC1)c1ccc(F)cc1	inactive
N[C@@H]1C[C@H]1c1ccccc1	inactive
O=CC(O)C(O)C(O)CO (centres undefined)	inactive
CC12CCC(=O)NC1=CCC1C2CCC2(C)C(OC(=O)CCCc3ccc(N(CCCl)CCCl)cc3)CCC12 (centres undefined)	inactive
CN(N=O)C(=O)c1c(N(C)N=O)ncn1C	inactive
CN(C)CCNC(=O)c1cccc2c(=O)c3ccccc3oc12	active
O=c1[nH]c2ccccc2n1C1CCN(CCCC(c2ccc(F)cc2)c2ccc(F)cc2)CC1	inactive
CNC(=O)Oc1ccccc1OC(C)C	inactive
Cc1ccc(N=Cc2cccc3cccnc23)c(C(=O)O)c1	inactive
CSCCC(=O)N1[C@@H](c2ccccc2O)SC[C@H]1C(=O)O	inactive
CCn1cc(C(=O)O)c(=O)c2cc(F)c(-c3ccncc3)c(F)c21	inactive
C=C(C)C(=O)OCCOC(=O)C(=C)C	inactive
C[C@]12C=CC(=O)C=C1CC[C@@H]1[C@@H]2C(=O)C[C@@]2(C)[C@H]1CC[C@]2(O)C(=O)CO	inactive
O=C(CCl)Nc1snc2ccc(Cl)cc12	active
S=P(N1CC1)(N1CC1)N1CC1	inactive
